target: human CCR6 (Homo sapiens, UniProt P51684); construct: expressed in transfected cells; host or cells: HEK-293; assay: FLIPR assay (inhibition of CCL20-induced calcium signal); assay type: cell-based; settings: HEK-293 cells expressing human CCR6; mean values where determined several times; read-out: FLIPR IC50
Sequence (P51684 whole entry): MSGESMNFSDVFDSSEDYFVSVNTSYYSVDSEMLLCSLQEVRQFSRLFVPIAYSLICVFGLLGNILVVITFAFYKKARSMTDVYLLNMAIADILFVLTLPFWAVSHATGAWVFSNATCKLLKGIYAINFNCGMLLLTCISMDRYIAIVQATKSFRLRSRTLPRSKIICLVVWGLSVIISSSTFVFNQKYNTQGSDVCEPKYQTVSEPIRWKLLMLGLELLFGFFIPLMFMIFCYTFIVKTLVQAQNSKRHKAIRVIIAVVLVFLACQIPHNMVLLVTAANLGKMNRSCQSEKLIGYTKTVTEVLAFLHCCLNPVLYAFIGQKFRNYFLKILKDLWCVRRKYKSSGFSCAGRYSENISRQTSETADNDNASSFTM
Reported pIC50 values for a set of compounds
Remember the convention: pIC50 equals -log10 of concentration in molar.

Use these answered entries as a reference point.
INSERT INTO assay_data (compound, metric_name, observed_value) VALUES
  ('CC(=O)N1CCC(C)(c2nc(-c3cncc([C@@](O)(c4ccc(C(C)C)cc4)C4(C)CN(C)C4)c3)no2)CC1', 'pIC50', 7.21),
  ('CCN1CC(C)([C@](O)(c2ccc(C(C)C)cc2)c2cncc(-c3noc(C4CCN(C(C)=O)CC4)n3)c2)C1', 'pIC50', 6.94),
  ('CC(=O)N1CCC(C2CC(=O)N(c3cc([C@@](O)(c4ccc(C(C)C)cc4)C4(C)CN(C)C4)cnn3)C2)CC1 (stereo partly shown)', 'pIC50', 6.37),
  ('CC(C)c1ccc([C@](O)(c2cncc(N3CCC4(CCOCC4)C3=O)c2)C2(C)CN(C)C2)cc1', 'pIC50', 6.32),
  ('CC(C)c1ccc([C@](O)(c2cncc(C#CC(C)(O)c3nn(C)c4ccccc34)c2)C2(C)CN(C)C2)cc1 (stereo partly shown)', 'pIC50', 7.90);

Lab request: please report pIC50 under test system human CCR6 (Homo sapiens, UniProt P51684) for CC(C)c1ccc([C@](O)(c2cncc(N3CC(C4CCOCC4)OC3=O)c2)C2(C)CN(C)C2)cc1 (stereo partly shown)
6.31

pIC50 of COc1ccccc1C(C)(O)CCc1cncc([C@@](O)(c2ccc(C(C)C)cc2)C2(C)CN(C)C2)c1 (stereo partly shown) on human CCR6 (Homo sapiens, UniProt P51684)?
7.79

Param readout= pIC50; system= human CCR6 (Homo sapiens, UniProt P51684); entry= CC(C)c1ccc([C@](O)(c2cncc(N3C[C@@H](C)O[C@@H](C)C3)c2)C2(C)CN(C)C2)cc1 ; returns value.
7.31

Enter reported pIC50 observed with human CCR6 (Homo sapiens, UniProt P51684) for Cc1cccc(C(C)(O)C#Cc2cncc([C@@](O)(c3ccc(C(C)C)cc3)C3(C)CN(CC(F)F)C3)c2)n1 (stereo partly shown)
7.00

What pIC50 appears in the records for this compound with human CCR6 (Homo sapiens, UniProt P51684)? CC(=O)N1CCC[C@]1(C)CCc1cncc([C@@](O)(c2ccc(C(C)C)cc2)C2(C)CN(C)C2)c1
6.56
